Data origin, for the record: ChEMBL document CHEMBL4673312

method-summary: in vitro
condition-description: rat, plasma
Measured half-life at 2 µM values are reported for all entries that follow.
Reply with just the number (in h).

Which half-life at 2 µM value is on record for `CC(C)(C)CNC(=O)C[C@H](NC(=O)[C@H](CC(=O)NCC(C)(C)C)NC(=O)N1CCC(C(=O)Nc2cccnc2)CC1)C(=O)NCc1ccccc1Cl` ?
1.2

Consider now this further compound.
Which half-life at 2 µM value is on record for `CC(C)(C)CNC(=O)C[C@H](NC(=O)N1CCC(NC(=O)c2ccc(F)cc2)CC1)C(=O)N[C@@H](CCc1ccccc1)C(=O)NCc1ccccc1Cl` ?
1.53
